Test system: Clostridioides difficile
Assay: Anti-sporulation activity against Clostridium difficile M7404 assessed as fold reduction in spore count incubated overnight by absorbance based assay relative to control; note: test concentration or dose not given here
Assay type: functional
# maps each entry to its fold change (FC)
Metric Name: fold change (FC)

# Smiles Structure, Metric Name, Result Value
rows = [
    ("CO[C@@]1(NC(=O)Cn2cc(-c3ccccc3)nn2)C(=O)N2C(C(=O)O)=C(CSc3nnnn3C)CS[C@@H]21", "fold change (FC)", ">100000"),
    ("CO[C@@]1(NC(=O)Cn2cc(CO)nn2)C(=O)N2C(C(=O)O)=C(CSc3nnnn3C)CS[C@@H]21", "fold change (FC)", 10),
    ("CO[C@@]1(NC(=O)Cn2cc(C(=O)O)nn2)C(=O)N2C(C(=O)O)=C(CSc3nnnn3C)CS[C@@H]21", "fold change (FC)", 100),
    ("CO[C@@]1(NC(=O)Cn2cc(C(C)(C)O)nn2)C(=O)N2C(C(=O)O)=C(CSc3nnnn3C)CS[C@@H]21", "fold change (FC)", 100),
    ("CO[C@@]1(NC(=O)Cn2cc(CCC(C)C)nn2)C(=O)N2C(C(=O)O)=C(CSc3nnnn3C)CS[C@@H]21", "fold change (FC)", 1000),
    ("CO[C@@]1(NC(=O)Cn2cc(C3CCCCC3)nn2)C(=O)N2C(C(=O)O)=C(CSc3nnnn3C)CS[C@@H]21", "fold change (FC)", ">100000"),
    ("CO[C@@]1(NC(=O)Cn2cc(-c3ccc(C#N)cc3)nn2)C(=O)N2C(C(=O)O)=C(CSc3nnnn3C)CS[C@@H]21", "fold change (FC)", ">100000"),
    ("CO[C@@]1(NC(=O)Cn2cc(-c3ccc(C(=O)O)cc3)nn2)C(=O)N2C(C(=O)O)=C(CSc3nnnn3C)CS[C@@H]21", "fold change (FC)", 1000),
    ("CO[C@@]1(NC(=O)Cn2cc(-c3cccc4cccnc34)nn2)C(=O)N2C(C(=O)O)=C(CSc3nnnn3C)CS[C@@H]21", "fold change (FC)", 100),
    ("CO[C@@]1(NC(=O)Cn2cc(-c3cccc(C(=O)O)c3)nn2)C(=O)N2C(C(=O)O)=C(CSc3nnnn3C)CS[C@@H]21", "fold change (FC)", 1000),
    ("CO[C@@]1(NC(=O)Cn2cc(-c3cccc4ccccc34)nn2)C(=O)N2C(C(=O)O)=C(CSc3nnnn3C)CS[C@@H]21", "fold change (FC)", ">100000"),
]
